Experiment: qHTS Assay to Find Inhibitors of Chronic Active B-Cell Receptor Signaling: Hit Validation in Primary Screen; further: nearly all actives have a fitted effect of over 75% in size; further: potency means the concentration at half of the fitted maximal effect
Details: ABC-DLBCL IkB-luc/CBR ratio luminescence, 4 h; series mostly up to 46.1 µM
Screen size: about 1,200 compounds; about 480 (40%) were called active. About 29% were inconclusive and are not listed. The list shows a part of the results.

[
  {
    "COMPOUND": "Nc1ncnc2c1ncn2[C@@H]1O[C@H](CNCc2ccc(-c3cc(C(F)(F)F)ccc3Cl)o2)[C@@H](O)[C@H]1O",
    "Potency": "inactive"
  },
  {
    "COMPOUND": "Cc1cc2nc(/C=C/c3cccnc3)[nH]c2cc1C",
    "Potency": "1.03 µM (active)"
  },
  {
    "COMPOUND": "C=CCNc1ncnc2c1ncn2C1OC(CO)C(O)C1O (stereo unspecified)",
    "Potency": "23.1 µM (active)"
  },
  {
    "COMPOUND": "CC(C)(C)NC(=S)N/N=C/c1cccnc1",
    "Potency": "inactive"
  },
  {
    "COMPOUND": "OCC1OC(n2cnc3c(NC4CCCCC4)ncnc32)C(O)C1O (stereo unspecified)",
    "Potency": "1.46 µM (active)"
  },
  {
    "COMPOUND": "Nc1ncnc2c1ncn2[C@@H]1O[C@H](CNC(=O)[C@@H]2CCCN2S(=O)(=O)c2ccc(F)cc2)[C@@H](O)[C@H]1O",
    "Potency": "inactive"
  }
]

###

Test: qHTS Assay to Find Inhibitors of Chronic Active B-Cell Receptor Signaling: Hit Validation in Primary Screen; further: nearly all actives have a fitted effect of over 75% in size
Settings: ABC-DLBCL IkB-luc/CBR ratio luminescence, 4 h; series mostly up to 46.1 µM
The whole screen tested about 1,200 compounds, of which about 480 (40%) were called active. About 29% were inconclusive and are not listed. The call rests on the fitted dose curve; in most records, active means well fitted inhibition curve with a large enough effect; inconclusive means small, poorly fitted or top-dose-only effect; inactive means no such curve, though single readings can be large or run the other way. Some of the results follow.
Labels: t (active), f (inactive)

[
  {
    "COMPOUND": "CCN(CC)c1ccc(/C=N/N=C(N)N)c(O)c1",
    "ASSIGNED_CATEGORY": "t"
  },
  {
    "COMPOUND": "CSc1nc(N(C)NC(=O)c2ccc(Cl)cc2)c2ccccc2n1",
    "ASSIGNED_CATEGORY": "f"
  },
  {
    "COMPOUND": "COc1ccc2nc(NC(=S)NC(=O)c3ccco3)sc2c1",
    "ASSIGNED_CATEGORY": "f"
  },
  {
    "COMPOUND": "O=C(Cc1n[nH]c(=O)c2ccccc12)OCC(=O)c1ccc2c(c1)OCCO2",
    "ASSIGNED_CATEGORY": "t"
  },
  {
    "COMPOUND": "Cc1ccc(C(=O)c2cc([N+](=O)[O-])ccc2N2CCOCC2)c(C)c1",
    "ASSIGNED_CATEGORY": "t"
  },
  {
    "COMPOUND": "Cc1ccc(/C=N/NC(=O)c2n[nH]c3c2CCCC3)cc1",
    "ASSIGNED_CATEGORY": "t"
  },
  {
    "COMPOUND": "O=C(Nc1nc2c(F)cc(F)cc2s1)c1ccccn1",
    "ASSIGNED_CATEGORY": "t"
  },
  {
    "COMPOUND": "COc1ccccc1-c1nc2c3ccccc3nc(=S)n2[nH]1",
    "ASSIGNED_CATEGORY": "f"
  },
  {
    "COMPOUND": "S=C(Nc1ccccn1)c1ccccn1",
    "ASSIGNED_CATEGORY": "f"
  },
  {
    "COMPOUND": "O=C(Nc1nc2ccc(F)cc2s1)c1ccccn1",
    "ASSIGNED_CATEGORY": "t"
  },
  {
    "COMPOUND": "COc1ccc(N=N/C(=C\\O)C(=O)c2ccco2)cc1",
    "ASSIGNED_CATEGORY": "f"
  },
  {
    "COMPOUND": "CCN(c1cccc(C)c1)S(=O)(=O)c1ccc(-c2cc(C)no2)s1",
    "ASSIGNED_CATEGORY": "t"
  },
  {
    "COMPOUND": "Cc1ccc(C(=O)c2cc([N+](=O)[O-])ccc2N2CCCCC2)c(C)c1",
    "ASSIGNED_CATEGORY": "t"
  },
  {
    "COMPOUND": "Cc1ccc2nc(NC(=O)c3ccccn3)sc2c1",
    "ASSIGNED_CATEGORY": "t"
  },
  {
    "COMPOUND": "CCOc1ccc2nc(NC(=O)c3ccccn3)sc2c1",
    "ASSIGNED_CATEGORY": "t"
  },
  {
    "COMPOUND": "O=C(N/N=C/c1ccc(Cl)cc1)c1n[nH]c2c1CCCC2",
    "ASSIGNED_CATEGORY": "t"
  },
  {
    "COMPOUND": "Cc1ccc(CNC(=O)Cc2ccc(-n3c(=O)[nH]c4ccsc4c3=O)cc2)cc1",
    "ASSIGNED_CATEGORY": "t"
  },
  {
    "COMPOUND": "CCOC(=O)C(C)N1C(=O)S/C(=C/c2ccc3c(c2)n(C)c(=O)n3C)C1=O (stereo unspecified)",
    "ASSIGNED_CATEGORY": "t"
  },
  {
    "COMPOUND": "Cc1ccc(N(C)S(=O)(=O)c2ccc(-c3cnc(C4CC4)o3)cc2)cc1",
    "ASSIGNED_CATEGORY": "t"
  },
  {
    "COMPOUND": "OCc1ccnc2c(O)cccc12",
    "ASSIGNED_CATEGORY": "f"
  },
  {
    "COMPOUND": "CCOc1ccccc1OCC(=O)N/N=C(\\C)Cc1ccc(OC)cc1",
    "ASSIGNED_CATEGORY": "f"
  },
  {
    "COMPOUND": "CCOC(=O)C(C)N1C(=O)S/C(=C/c2cc(C)n(-c3ccccn3)c2C)C1=O (stereo unspecified)",
    "ASSIGNED_CATEGORY": "f"
  },
  {
    "COMPOUND": "Cc1cccc(OCCN2C(=O)C(=O)c3cc(C)ccc32)c1",
    "ASSIGNED_CATEGORY": "t"
  },
  {
    "COMPOUND": "Cc1ccc(C(=O)c2cc([N+](=O)[O-])ccc2N2CCCCC2)cc1C",
    "ASSIGNED_CATEGORY": "t"
  },
  {
    "COMPOUND": "Cc1cccc(N(C)S(=O)(=O)c2ccc(-c3cnc(C4CC4)o3)cc2)c1",
    "ASSIGNED_CATEGORY": "t"
  },
  {
    "COMPOUND": "COC(=O)c1cn(C(=O)c2ccc(OC)cc2)c2ccccc12",
    "ASSIGNED_CATEGORY": "f"
  },
  {
    "COMPOUND": "O=C(NN=C1CCCC1)c1n[nH]c2c1CCC2",
    "ASSIGNED_CATEGORY": "f"
  },
  {
    "COMPOUND": "O=C(c1ccc(Br)cc1)c1cc([N+](=O)[O-])ccc1N1CCCCC1",
    "ASSIGNED_CATEGORY": "t"
  },
  {
    "COMPOUND": "Cc1cccc(N(C)S(=O)(=O)c2ccc(-c3cc(C)no3)s2)c1",
    "ASSIGNED_CATEGORY": "f"
  },
  {
    "COMPOUND": "COc1ccc(CNC(=O)COc2ccc(C(=O)c3ccc(F)cc3)cc2)cc1",
    "ASSIGNED_CATEGORY": "t"
  },
  {
    "COMPOUND": "COc1ccc(/C=N\\NC(=O)c2ccccc2F)cc1COc1ccc(F)cc1F",
    "ASSIGNED_CATEGORY": "t"
  },
  {
    "COMPOUND": "Cc1ccc2c(c1)C(=O)C(=O)N2CCOc1ccccc1",
    "ASSIGNED_CATEGORY": "t"
  },
  {
    "COMPOUND": "CN(CC(=O)Nc1ccc2c(c1)OCCO2)Cc1nc2ccccc2c(=O)[nH]1",
    "ASSIGNED_CATEGORY": "f"
  },
  {
    "COMPOUND": "COc1ccc(C(=O)NN(C)c2nc(C(F)(F)F)nc3ccccc23)cc1",
    "ASSIGNED_CATEGORY": "t"
  },
  {
    "COMPOUND": "C/C(=N\\NC(=O)c1ccc(F)cc1)c1ccccn1",
    "ASSIGNED_CATEGORY": "f"
  },
  {
    "COMPOUND": "CNC(=S)N/N=C(\\C)c1cccc([N+](=O)[O-])c1",
    "ASSIGNED_CATEGORY": "f"
  },
  {
    "COMPOUND": "CCN1C(=O)C(O)(C2COC(C)(C)CC2=O)c2cc(Br)ccc21 (stereo unspecified)",
    "ASSIGNED_CATEGORY": "t"
  },
  {
    "COMPOUND": "O=C(O)CCCCCCCCc1cn(Cc2ccc(C(=O)c3ccccc3)cc2)nn1",
    "ASSIGNED_CATEGORY": "f"
  },
  {
    "COMPOUND": "CCN(CC)c1ccc(/C=N/NC(=S)NC)c(O)c1",
    "ASSIGNED_CATEGORY": "f"
  },
  {
    "COMPOUND": "C/C(=N\\NC(=O)C(C)n1nc(C)c([N+](=O)[O-])c1C)c1ccccc1O (stereo unspecified)",
    "ASSIGNED_CATEGORY": "f"
  },
  {
    "COMPOUND": "CC1(CCc2ccc(O)cc2)NC(=O)NC1=O (stereo unspecified)",
    "ASSIGNED_CATEGORY": "f"
  },
  {
    "COMPOUND": "CC(C)N1C(=O)/C(=C/c2nc3ccccc3c(=O)n2-c2ccccc2)c2ccccc21",
    "ASSIGNED_CATEGORY": "t"
  },
  {
    "COMPOUND": "COc1ccc(N2C(=O)CS/C2=N\\C(=S)Nc2ccccc2)cc1",
    "ASSIGNED_CATEGORY": "f"
  },
  {
    "COMPOUND": "CN1c2ccccc2Sc2cc(N)ccc21",
    "ASSIGNED_CATEGORY": "f"
  },
  {
    "COMPOUND": "COc1cc(OC)cc(C(=O)Oc2c(CN3CCOCC3)cc(Cl)c3cccnc23)c1",
    "ASSIGNED_CATEGORY": "f"
  },
  {
    "COMPOUND": "CCOc1cc(/C=N/O)ccc1OCc1ccccc1F",
    "ASSIGNED_CATEGORY": "f"
  }
]
